Molecular target: Cytochrome P450 11B2, mitochondrial (Homo sapiens, UniProt P19099)
Sequence (P19099 whole entry): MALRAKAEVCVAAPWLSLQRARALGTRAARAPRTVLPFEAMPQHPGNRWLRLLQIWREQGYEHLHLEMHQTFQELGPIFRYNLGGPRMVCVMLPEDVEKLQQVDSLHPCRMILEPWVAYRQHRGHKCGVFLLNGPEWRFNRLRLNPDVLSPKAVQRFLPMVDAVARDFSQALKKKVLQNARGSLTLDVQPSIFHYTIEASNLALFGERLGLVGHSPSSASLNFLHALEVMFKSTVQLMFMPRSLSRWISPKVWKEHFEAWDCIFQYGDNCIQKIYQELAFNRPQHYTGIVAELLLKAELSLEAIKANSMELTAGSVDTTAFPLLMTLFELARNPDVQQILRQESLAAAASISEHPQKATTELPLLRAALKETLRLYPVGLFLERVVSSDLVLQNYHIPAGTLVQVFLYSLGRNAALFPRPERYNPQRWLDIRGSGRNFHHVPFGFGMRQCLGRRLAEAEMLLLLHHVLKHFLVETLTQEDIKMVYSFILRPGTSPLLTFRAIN
Test: Inhibition of human CYP11B2-CLE9 expressed in Chinese hamster V79 cells using 11-deoxycorticosterone as substrate preincubated for 1 hr followed by substrate addition measured for 3 hrs by HTRF assay
experimental_readout: IC50

Lookup: Answer with the recorded IC50 of `CC(C)(O)c1cncc(-n2ncc3ccc(F)cc32)c1` only.
Found: 78.5 to 79 nM

Lookup: Answer with the recorded IC50 of `CC(C)(O)c1cncc(-n2ncc3c(C(F)(F)F)cccc32)c1` only.
Found: 2.2 to 2.24 nM

Lookup: Answer with the recorded IC50 of `Fc1ccc2c(cnn2-c2cncc(C(F)(F)F)c2)c1` only.
Found: 88 to 88.3 nM
